experiment: PhoP regulon inhibitors, Salmonella typhi PhoP promoter GFP reporter, confirmatory (AID 1850); conditions: fluorescence, 4 h, at 50 µM, stronger effect = higher value;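 further: 0% = induced wells with vehicle and 100% = uninduced wells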
Screen size: about 310,000 compounds; about 1,000 (0.32%) were called active. Only a sample is shown. Measured potencies and affinities stand elsewhere.
ENDPOINT_LABEL: inhibition (%)

| COMPOUND | ENDPOINT_LABEL | RECORDED_RESULT |
| --- | --- | --- |
| O=C(/C=C/c1ccc2c(c1)OCO2)c1cccnc1 | inhibition | 0.98 |
| Fc1ccc(Nc2nnc(C(F)(F)F)s2)cc1 | inhibition | -1.74 |
| COc1ccccc1Nc1ccc([N+](=O)[O-])cc1N | inhibition | 2.25 |
| COc1ccc(-c2cc(-c3ccc(O)cc3)nc(N)c2C#N)cc1 | inhibition | -1.2 |
| CC1(N(O)/C=C2\C=CC=CC2=O)CCCCC1=O (stereo not given) | inhibition | 0.16 |
| O=C(Nc1ccccc1C(=O)Nc1ccccn1)c1cc(F)c(F)cc1Cl | inhibition | -1.17 |
| CC(C)Oc1ccc(-c2nc(NCC3CCCO3)c3ccccc3n2)cc1 (stereo not given) | inhibition | -13.6 |
| CC[C@H]1OC(=O)[C@H](C)[C@@H](O[C@H]2C[C@@](C)(OC)[C@@H](O)[C@H](C)O2)[C@H](C)[C@@H](O[C@@H]2O[C@H](C)C[C@H](N(C)C)[C@H]2O)[C@](C)(O)C[C@@H](C)C(=NOCOCCOC)[C@H](C)[C@@H](O)[C@]1(C)O | inhibition | -1.81 |
| FC(F)(F)c1nnc(Nc2ccc(Cl)cc2)s1 | inhibition | 13.5 |
| O=C(O)COCC(=O)NC1CCN(Cc2ccccc2)CC1 | inhibition | -0.41 |

----------
assay: PhoP regulon inhibitors, Salmonella typhi PhoP promoter GFP reporter, confirmatory (AID 1850); details: fluorescence, 4 h, at 50 µM, stronger effect = higher value;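 further: 0% = induced wells with vehicle and 100% = uninduced wells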
Screen size: about 310,000 compounds; about 1,000 (0.32%) were called active. Not all results are given here. Potency and affinity values are given separately.
ENDPOINT_LABEL: inhibition (%)

| COMPOUND | RECORDED_RESULT |
| --- | --- |
| CC1CC(NC(=O)/C(C#N)=C/c2ccc[nH]2)CC(C)(C)C1 (stereo not drawn) | 5.38 |
| Cc1nc2cc(NC(=O)c3ccc(S(=O)(=O)N(C)c4ccccc4)cc3)ccc2o1 | -24.8 |
| N#C/C(=C\c1ccccc1)C(=O)NC1CC1 | 2.22 |
| O=C(c1ccc2nc(Cc3ccccc3F)oc2c1)N1CCCC1 | -15.9 |
| Cc1cc(N(CCCl)CCCl)ccc1/C=N/N=C(\N)c1cnccn1 | 1.24 |
| O=C(Nc1ccc(Cl)c(Cl)c1)c1ccccc1 | -28.6 |
| O=C1C=C(O)c2cccc3cccc1c23 | -13.1 |
| N=c1c2c(-c3ccccc3)c(-c3ccccc3)n(Cc3ccccc3)c2ncn1CCCn1ccnc1 | -3.96 |
| O=C(Nc1cccc(Cl)c1)c1ccccc1 | -1.86 |
| O=C(CNC(=O)c1ccccc1Cl)N/N=C/c1ccc([N+](=O)[O-])s1 | -11.8 |
| O=C(CNC(=O)c1cccc(F)c1)N/N=C/c1cccc([N+](=O)[O-])c1 | -5.75 |
| CC(=O)c1ccc(O)c(CSc2nncn2C)c1 | -0.79 |
| COc1cc(CNn2cn[nH]c2=S)ccc1OCC(=O)NC(C)(C)C | -5.11 |
| O=C(CCn1nc(-c2ccccc2)c2ccccc2c1=O)N1CCN(c2ccccc2)CC1 | 6.41 |
| CCOC(=O)c1[nH]c2ccc(OC)cc2c1NC(=O)CN1CCSCC1 | 6.71 |
| O=C1[C@@H]2Cc3c([nH]c4ccccc34)C(c3cccc(Br)c3)N2C(=O)CN1C1CCN(Cc2ccccc2)CC1 (stereo partly drawn) | 0.55 |
| O=C(CNC(=O)Cc1ccc(Cl)cc1)NCC(=O)N1CCCCC1 | -7.52 |
| COc1ccccc1N1C(=O)c2ccccc2NC1c1cc(OC)c(OC)c(OC)c1 (stereo not drawn) | 2.7 |
| O=C(Cc1cccs1)N/N=C/c1ccccc1 | 10.9 |
| O=C(CC1SC(N2CCCC2)=NC1=O)Nc1ccc(C(=O)N2CCN(c3cccc(Cl)c3)CC2)cc1 (stereo not drawn) | -3.88 |
| O=C1Nc2ccccc2/C1=C/c1ccccc1F | -2.26 |
| COc1ccccc1-c1ccc2nnc(SCC(=O)N3CCCC3)n2n1 | 3.68 |
| O=C(Cc1ccccc1)NCC(=O)N/N=C/c1ccc([N+](=O)[O-])s1 | 11.8 |
